EXPERIMENT_NOTES: activity coefficient (dimensionless); of the first substance listed, at infinite dilution; xn = mol fraction of the nth substance listed
MEASUREMENT_SETUP: 333.15 K; Liquid; Chromatography; x1 = 0
Items are presented alongside their recorded activity coefficient.

COMPOUND: C1CCCCC1 [cyclohexane] + CCn1cc[n+](C)c1.F[B-](F)(F)F
activity coefficient: 39.6

COMPOUND: C1COCCO1 [1,4-dioxane] + CCn1cc[n+](C)c1.F[B-](F)(F)F
activity coefficient: 1.44

COMPOUND: CCCCCC [hexane] + CCn1cc[n+](C)c1.F[B-](F)(F)F
activity coefficient: 85.3

COMPOUND: c1ccccc1 [benzene] + CCn1cc[n+](C)c1.F[B-](F)(F)F
activity coefficient: 2.05

COMPOUND: Cc1cccc(C)c1 [1,3-dimethylbenzene] + CCn1cc[n+](C)c1.F[B-](F)(F)F
activity coefficient: 5.32

###

EXPERIMENT_NOTES: activity coefficient (dimensionless); of the first substance listed, at infinite dilution; xn = mol fraction of the nth substance listed
MEASUREMENT_SETUP: 363.15 K; Liquid; Chromatography; x1 = 0
Everything with activity coefficient lower than 5 is Not met; everything else, including exactly 5, is Met.

COMPOUND: CCCCCCCCCC [decane] + CCn1cc[n+](C)c1.F[B-](F)(F)F
ASSIGNED_CATEGORY: Met
//
COMPOUND: CCCCCC [hexane] + CCn1cc[n+](C)c1.F[B-](F)(F)F
ASSIGNED_CATEGORY: Met
//
COMPOUND: C1CCOC1 [tetrahydrofuran] + CCn1cc[n+](C)c1.F[B-](F)(F)F
ASSIGNED_CATEGORY: Not met
//
COMPOUND: C1COCCO1 [1,4-dioxane] + CCn1cc[n+](C)c1.F[B-](F)(F)F
ASSIGNED_CATEGORY: Not met
//
COMPOUND: CC(C)=O [acetone] + CCn1cc[n+](C)c1.F[B-](F)(F)F
ASSIGNED_CATEGORY: Not met
//
COMPOUND: Cc1ccc(C)cc1 [1,4-dimethylbenzene] + CCn1cc[n+](C)c1.F[B-](F)(F)F
ASSIGNED_CATEGORY: Not met
//
COMPOUND: CC#N [acetonitrile] + CCn1cc[n+](C)c1.F[B-](F)(F)F
ASSIGNED_CATEGORY: Not met
//
COMPOUND: ClC(Cl)Cl [trichloromethane] + CCn1cc[n+](C)c1.F[B-](F)(F)F
ASSIGNED_CATEGORY: Not met
//
COMPOUND: CCOC(C)=O [ethyl acetate] + CCn1cc[n+](C)c1.F[B-](F)(F)F
ASSIGNED_CATEGORY: Not met
//
COMPOUND: CCCCC [pentane] + CCn1cc[n+](C)c1.F[B-](F)(F)F
ASSIGNED_CATEGORY: Met
//
COMPOUND: Cc1cccc(C)c1 [1,3-dimethylbenzene] + CCn1cc[n+](C)c1.F[B-](F)(F)F
ASSIGNED_CATEGORY: Not met
//
COMPOUND: Cc1ccccc1 [toluene] + CCn1cc[n+](C)c1.F[B-](F)(F)F
ASSIGNED_CATEGORY: Not met
//
COMPOUND: CC1CCCCC1 [methylcyclohexane] + CCn1cc[n+](C)c1.F[B-](F)(F)F
ASSIGNED_CATEGORY: Met
//
COMPOUND: CCCCCCCC [octane] + CCn1cc[n+](C)c1.F[B-](F)(F)F
ASSIGNED_CATEGORY: Met
//
COMPOUND: C1CCCCC1 [cyclohexane] + CCn1cc[n+](C)c1.F[B-](F)(F)F
ASSIGNED_CATEGORY: Met
//
COMPOUND: C1=CCCCC1 [cyclohexene] + CCn1cc[n+](C)c1.F[B-](F)(F)F
ASSIGNED_CATEGORY: Met
//
COMPOUND: CCc1ccccc1 [ethylbenzene] + CCn1cc[n+](C)c1.F[B-](F)(F)F
ASSIGNED_CATEGORY: Met
//
COMPOUND: c1ccccc1 [benzene] + CCn1cc[n+](C)c1.F[B-](F)(F)F
ASSIGNED_CATEGORY: Not met
